This collection of values is drawn from patent US5888475A.

assay-protocol: In vivo tissue distribution of radioactivity after intravenous administration
Parameters: species or system Sprague Dawley rats
test-settings: kidney, iv; rat, i.v., 60 min; read-out: Kidney, Mean % Injected Dose/Gram
readout-type: tissue uptake at 1 h (%ID/g)
Field: numeric (%ID/g). Do not append units.

For CC(C[18F])OC(=O)[C@H]1[C@@H](c2ccc(I)cc2)C[C@@H]2CC[C@H]1N2C (stereo partly shown) [[^18 F] FIPIT 8] , what is its reported tissue uptake at 1 h?
0.44

---

assay-protocol: In vivo tissue distribution of radioactivity after intravenous administration
Design: species or system Sprague Dawley rats
test-settings: brain, iv; rat, i.v., 30 min; read-out: Brain (B), Mean % Injected Dose/Gram
readout-type: tissue uptake at 0.5 h (%ID/g)
Field: numeric (%ID/g). Do not append units.

For CC(C[18F])OC(=O)[C@H]1[C@@H](c2ccc(I)cc2)C[C@@H]2CC[C@H]1N2C (stereo partly shown) [[^18 F] FIPIT 8] , what is its reported tissue uptake at 0.5 h?
0.53

---

assay-protocol: In vivo tissue distribution of radioactivity after intravenous administration
Set-up: species or system Sprague Dawley rats
test-settings: cerebellum, iv; rat, i.v., 60 min; read-out: Cerebell (C), Mean % Injected Dose/Gram
readout-type: tissue uptake at 1 h (%ID/g)
Field: numeric (%ID/g). Do not append units.

For CC(C[18F])OC(=O)[C@H]1[C@@H](c2ccc(I)cc2)C[C@@H]2CC[C@H]1N2C (stereo partly shown) [[^18 F] FIPIT 8] , what is its reported tissue uptake at 1 h?
0.16

---

assay-protocol: In vivo tissue distribution of radioactivity after intravenous administration
Set-up: species or system Sprague Dawley rats
test-settings: muscle, iv; rat, i.v., 30 min; read-out: Muscle, Mean % Injected Dose/Gram
readout-type: tissue uptake at 0.5 h (%ID/g)
Field: numeric (%ID/g). Do not append units.

For CC(C[18F])OC(=O)[C@H]1[C@@H](c2ccc(I)cc2)C[C@@H]2CC[C@H]1N2C (stereo partly shown) [[^18 F] FIPIT 8] , what is its reported tissue uptake at 0.5 h?
0.13

---

assay-protocol: In vivo tissue distribution of radioactivity after intravenous administration
Parameters: species or system Sprague Dawley rats
test-settings: heart, iv; rat, i.v., 30 min; read-out: Heart, Mean % Injected Dose/Gram
Description: In vivo distribution of a compound of the invention, [^18 F]-2β-carbo-2'-fluoroisopropoxy-3β-(4-iodophenyl)tropane (FIPIT) 8 (X=4-iodophenyl; Y=1'fluoro-isopropoxy) was measured, as well as brain PET imaging to determine suitability of the compound as a label. […] These studies provided a calculated binding constant for FIPIT 8 with dopamine transporter of 1.13 nM. […] Region of interest measurements determined striatal to cerebellum ratios to be 3.0 at 190 min post administration. […]
readout-type: tissue uptake at 0.5 h (%ID/g)
Field: numeric (%ID/g). Do not append units.

For CC(C[18F])OC(=O)[C@H]1[C@@H](c2ccc(I)cc2)C[C@@H]2CC[C@H]1N2C (stereo partly shown) [[^18 F] FIPIT 8] , what is its reported tissue uptake at 0.5 h?
0.14

---

assay-protocol: In vivo tissue distribution of radioactivity after intravenous administration
Parameters: species or system Sprague Dawley rats
test-settings: brain, iv; rat, i.v., 60 min; read-out: Brain (B), Mean % Injected Dose/Gram
readout-type: tissue uptake at 1 h (%ID/g)
Field: numeric (%ID/g). Do not append units.

For CC(C[18F])OC(=O)[C@H]1[C@@H](c2ccc(I)cc2)C[C@@H]2CC[C@H]1N2C (stereo partly shown) [[^18 F] FIPIT 8] , what is its reported tissue uptake at 1 h?
0.31
